- TARGET_OR_TEST_SYSTEM: pooled human IgG (human IgG1,2,3 and 4)
The proteins listed here are annotated with their Enzyme Activity Endpoint Assay (purified): scIgG.
PROPERTY_MEASURED: Enzyme Activity Endpoint Assay (purified): scIgG (ng/µL)

[[record]]
protein = "PRT-505 (protein) MVTSVWTKGVTPPTDFIKGEDVFHAPYKAGQGWYDITKAFDGGDDLLCGAATAGNMLHWWFDQNKEYIEAYLKKHPEKQKIMFGDQELLDVRKAINTKGSQKNSELFNYFRDKAFPNLSARRLGVMPDLVLDMFINGYYLNVTKTQTTDVNRQEQEKDKRGGIFDAVFGRGDQTKLLTSRHDLKNKGLKEISDLIKQELTEGKALGLSHTYANVRINHVINLWGADFDSDGNLKAIYVTDSDSNASIGMKKYFVGVNSAGKVAISAKEIKEDNIGAQVLGLFTLSTGQKIWNKTNLEHHHHHH"
experimental_result = 752

[[record]]
protein = "PRT-636 (protein) MQITSVWTKGVTPLTMDQFRNYNYDVIHAPYKPGQGWYDITKAFDGKDNLLCGAATAGNMLHWWFDQNKTEIEAYLSKHPEKQKIIFNNQELFDLKAAIDTKDSQTNSQLFNYFRDKAFPNLSARQLGVMPDLVLDMFINGYYLNVFKTQSTDVNRPYQDKDKRGGIFDAVFTRGDQTTLLTARHDLKNKGLNDISTIIKQELTEGKALALSHTYANVSISHVINLWGADFNAEGNLEAIYVTDSDANASIGMKKYFVGINAHGHVAISAKKIEGENIGAQVLGLFTLSSGKDIWQKLSLEHHHHHH"
experimental_result = 0

[[record]]
protein = "PRT-367 (protein) MSQTEDSESLQRLRDIEDFQAEKEKQNVVYTKWLDGVDVKDHDFRKIVDGNSAYYATPLLNGRGWYDINKDFNRDNDKCAAAVAANMFHYWLDRNRDNVDRFLRQNPEKHGIIELPDGQLKLSDFLNTYESDDGYRDKSKLFDFISNNFNGPVWTDKLLDNYINGYAYNYKYGRTIEDSTKNTSKINFFKEVFNEKILTNNHSIRNQNEFSVLLSEALYTGKAIGLSYGPAGLRHSLGHIISVWGADLDADGNVVAIYVTDSDDKKLTIGDERVGLKRYKISTDDEGRLRLTAYEETHNTGGQVRGLWTLDTGKQAWADYFDKTEQTGTDQAEQ"
experimental_result = 518

[[record]]
protein = "PRT-354 (protein) MSQTEDSESLQRLRDIEDFQAEKKMQNVVYTKWLDGVDVKDHDFRKIVDGNEAYYATPLLNGRGFYDINKDFNRDSDKCAAAVAANMFHYWLDINRDNVDRFLRQNPEKHGIIELPDGQLKLSDFLNTYESDHGYRDKSKLFDFISENFNGPVWTDKLLDNYINGYAYNYKYGRTIEDPTKNTSKINFFKEVFNEKILTNNHSIRNQNELSVLLSEALYTGKAIGLSYGPAGLRHSLGHIISVWGADLDADGNVVAIYVTDSDDKKLTIGDERVGLKRYKISTDDENRLRLTAYEETHNTGGQIRGLWTLDTGKYAWADYFDKTEQTGTDQAEQ"
experimental_result = 233

[[record]]
protein = "PRT-318 (protein) MTITSVWTKGVTPPTPEDFRYNNEDVLHAPYVANQGWYDITKTFDGKDNLLCGAATAGNMLHWWFDQNKEEIERYLKKHPEKQKIIFNNQEWFDVKAAIDTKDSQTNSKLFDYFRDKAFPNLSARQLGVMPDLVLDMFINGYYLNLGKTQSTDVNRPYQDKDKRGGIFDAVFTRGDQTTLLTARHDLKNKGLNEISDLIKQELTEGKALALSHTYANVRINHVINLWGADFDAEGNLIAIYVTDSDANASIGMKKYFVGVNANGKVAISAKKIEGDNIGAQVLGLFTLSLGQDIWQKLS"
experimental_result = 100

[[record]]
protein = "PRT-343 (protein) MTITSVWTKGVTPPTPEDFRENNEDVLHAPYLANQGWYDITKAFDGKDNLLCGAATAGNMLHWWFDQNKEEIERYLKKHPEKQKIIFGNQELFDVKAAIDTKDSQTNSKLFDYFRDKAFPNLSARQLGVMPDLVLDMFINGYYLNLGKTQSTDVNRPYQDKDKRGGIFDAVFTRGDQTTLLTARHDLKNKGLNEISDLIKQELTEGKALALSHTYANVSINHVINLWGADFDAEGELEAIYVTDSDANPSIGMKKYFVGRNAHGKVAISAKKIEGDNIGAQVLGLFTLSTGQDIWQKLS"
experimental_result = 682

[[record]]
protein = "PRT-349 (protein) MSQTEDSESLQRLRDIEDFQAEKKDQNVVYTKWLDGVDVKDHDFRKIVDGNIAYYATPLLNGRGLYDINKDFNRDSDKCAAAVAANMFHYWLDINRDNVDRFLRQNPEKHGIIELPDGQLKLSDFLNTYESDHGYRDKSKLFDFISENFNGPVWTDKLLDNYINGYAYNYKYGRTIEDPTKNTSKINFFKEVFNEKILTNNHSIRNQNELSVLLSEALYTGKAIGLSYGPAGLRHSLGHIISVWGADLDADGNVVAIYVTDSDDKKLTIGDERVGLKRYKISTDDENRLRLTAYEETHNTGGQVRGLWTLDTGKYAWADYFDKTEQTGTDQAEQ"
experimental_result = 286

[[record]]
protein = "PRT-341 (protein) MTITSVWTKGVTPPTPEDFRENNEDVLHAPYLANQGWYDITKAFDGKDNLLCGAATAGNMLHWWFDQNKEEIERYLKKHPEKQKIIFNNQEWFDVKAAIDTKDSQTNSKLFNYFRDKAFPNLSARQLGVMPDLVLDMFINGYYLNLPKTQSTDVNRPYQDKDKRGGIFDAVFTRGDQTTLLTARHDLKNKGLNEISDLIKQELTEGKALALSHTYANVSINHVINLWGADFDAEGNLEAIYVTDSDANASIGMKKYAVGVNAHGKVAISAKKIEGDNIGAQVLGLFTLSTGQDIWQKLS"
experimental_result = 318

